Molecular target: Feline FcRn complex (FcRn-alpha subunit and beta-microglobulin) (feline)
Assay: SPR (Biacore), feline FcRn captured on SA chip, IgG flowed over, pH 6
pKd: −log10 of the molar value.
VALUE_TYPE: pKd

feline IgG1a Fc mutant S428Y, S434Y (antibody, part only; not given: variable domains and light chain, not shown: another chain or arm of the molecule; small tags and cut ends) constant: ASTTAPSVFPLAPSCGTTSGATVALACLVLGYFPEPVTVSWNSGALTSGVHTFPAVLQASGLYSLSSMVTVPSSRWLSDTFTCNVAHPPSNTKVDKTVRKTDHPPGPKPCDCPKCPPPEMLGGPSIFIFPPKPKDTLSISRTPEVTCLVVDLGPDDSDVQITWFVDNTQVYTAKTSPREEQFNSTYRVVSVLPILHQDWLKGKEFKCKVNSKSLPSPIERTISKAKGQPHEPQVYVLPPAQEELSRNKVSVTCLIKSFHPPDIAVEWEITGQPEPENNYRTTPPQLDSDGTYFVYSKLSVDRSHWQRGNTYTCSVYHEALHYHHTQKSLTQSPGK | 8.95
feline IgG1a Fc mutant S428Y, S434F (antibody, part only; not given: Variable domains, not shown: another chain or arm of the molecule; small tags and cut ends) constant: ASTTAPSVFPLAPSCGTTSGATVALACLVLGYFPEPVTVSWNSGALTSGVHTFPAVLQASGLYSLSSMVTVPSSRWLSDTFTCNVAHPPSNTKVDKTVRKTDHPPGPKPCDCPKCPPPEMLGGPSIFIFPPKPKDTLSISRTPEVTCLVVDLGPDDSDVQITWFVDNTQVYTAKTSPREEQFNSTYRVVSVLPILHQDWLKGKEFKCKVNSKSLPSPIERTISKAKGQPHEPQVYVLPPAQEELSRNKVSVTCLIKSFHPPDIAVEWEITGQPEPENNYRTTPPQLDSDGTYFVYSKLSVDRSHWQRGNTYTCSVYHEALHFHHTQKSLTQSPGK | 8.80

Origin of measurements: patent US20240400708A1
